Molecular target: HLA-B*27:05
Test: IEDB peptide-MHC binding, purified MHC/direct/fluorescence; filed as Kd, often an IC50 or EC50 that approximates it; bounds were set here for any values at or beyond the usual limits of such assays
Details: source organism: Pseudomonas putida
pKd: −log10 of the molar value.
readoutLabel: pKd

Query: Name the reported pKd value associated with the sequence `VMTEGRHAV`
Reply: ≤ 4.70

---

Molecular target: HLA-B*18:01
Assay: IEDB peptide-MHC binding, purified MHC/competitive/fluorescence; filed as Kd, often an IC50 or EC50 that approximates it; bounds were set here for any values at or beyond the usual limits of such assays
Conditions: source organism: Giardia lamblia ATCC 50803
readoutLabel: Kd

Query: Name the reported Kd value associated with the sequence `ELLDHLLLF`
Reply: ≥ 20 µM

---

Target: HLA-B*45:01
Experiment: IEDB peptide-MHC binding, purified MHC/competitive/radioactivity; filed as Kd, often an IC50 or EC50 that approximates it; bounds were set here for any values at or beyond the usual limits of such assays
Details: source organism: Mammarenavirus guanaritoense
readoutLabel: pKd
Bear in mind: pKd is minus log10 of a mol/L concentration; give just that figure.

Query: Name the reported pKd value associated with the sequence `GEKSRCYSL`
Reply: 5.91

---

Target: HLA-B*15:09
Assay: IEDB peptide-MHC binding, purified MHC/competitive/fluorescence; filed as Kd, often an IC50 or EC50 that approximates it; bounds were set here for any values at or beyond the usual limits of such assays
Settings: source organism: Orthomarburgvirus marburgense
readoutLabel: Kd

Query: Name the reported Kd value associated with the sequence `AEILSGRVI`
Reply: ≥ 20 µM

---

Target: HLA-A*02:02
Test: IEDB peptide-MHC binding, purified MHC/competitive/radioactivity; filed as Kd, often an IC50 or EC50 that approximates it; bounds were set here for any values at or beyond the usual limits of such assays
Details: source organism: Mammarenavirus whitewaterense
readoutLabel: pKd
Bear in mind: pKd is minus log10 of a mol/L concentration; give just that figure.

Query: Name the reported pKd value associated with the sequence `LNASYITPYV`
Reply: 7.48

---

Target: HLA-A*02:01
Test: IEDB peptide-MHC binding, purified MHC/competitive/radioactivity; bounds were set here for any values at or beyond the usual limits of such assays
Details: source organism: Human immunodeficiency virus 1
readoutLabel: pIC50
Bear in mind: pIC50 is minus log10 of a mol/L concentration; give just that figure.

Query: Name the reported pIC50 value associated with the sequence `RMYSPISIL`
Reply: 7.25

---

Target: HLA-B*07:02
Experiment: IEDB peptide-MHC binding, purified MHC/direct/fluorescence; filed as Kd, often an IC50 or EC50 that approximates it; bounds were set here for any values at or beyond the usual limits of such assays
Settings: source organism: Shigella flexneri
pKd: −log10 of the molar value.
readoutLabel: pKd

Query: Name the reported pKd value associated with the sequence `LSSIGIPAY`
Reply: ≤ 4.70

---

Target: HLA-B*45:01
Test: IEDB peptide-MHC binding, purified MHC/competitive/radioactivity; filed as Kd, often an IC50 or EC50 that approximates it; bounds were set here for any values at or beyond the usual limits of such assays
Settings: source organism: Lymphocytic choriomeningitis virus (strain Armstrong)
pKd: −log10 of the molar value.
readoutLabel: pKd

Query: Name the reported pKd value associated with the sequence `ADQAIANGV`
Reply: ≤ 4.68

---

Molecular target: HLA-A*02:01
Experiment: IEDB peptide-MHC binding, purified MHC/direct/fluorescence; filed as Kd, often an IC50 or EC50 that approximates it; bounds were set here for any values at or beyond the usual limits of such assays
Details: source organism: Coxiella burnetii
pKd: −log10 of the molar value.
readoutLabel: pKd

Query: Name the reported pKd value associated with the sequence `EEMPLVWDL`
Reply: ≤ 4.70

---

Target: HLA-A*26:01
Assay: IEDB peptide-MHC binding, purified MHC/direct/fluorescence; filed as Kd, often an IC50 or EC50 that approximates it; bounds were set here for any values at or beyond the usual limits of such assays
Conditions: source organism: Giardia lamblia ATCC 50803
pKd: −log10 of the molar value.
pKd overview

Some sequences with known pKd results, for comparison:
INSERT INTO measurements (itemsequence, targetortestsystem, testvalue) VALUES
  ('ITFHNQRDF', 'HLA-A*26:01', '≤ 4.70'),
  ('ISYTYNDNW', 'HLA-A*26:01', '≤ 4.70');

Continue with the next sequence.
Query: Name the reported pKd value associated with the sequence `GMLSSLHTL`
Reply: ≤ 4.70

---

Target: HLA-B*46:01
Assay: IEDB peptide-MHC binding, purified MHC/competitive/fluorescence; filed as Kd, often an IC50 or EC50 that approximates it; bounds were set here for any values at or beyond the usual limits of such assays
Settings: source organism: Corynebacterium glutamicum R
readoutLabel: Kd

Query: Name the reported Kd value associated with the sequence `RYDDGQSIY`
Reply: ≥ 20 µM

---

Molecular target: HLA-A*29:02
Experiment: IEDB peptide-MHC binding, purified MHC/competitive/fluorescence; filed as Kd, often an IC50 or EC50 that approximates it; bounds were set here for any values at or beyond the usual limits of such assays
Details: source organism: Ephydatia fluviatilis
readoutLabel: Kd

Query: Report Kd for `TLKPGTMSV` tested on HLA-A*29:02.
Reply: ≥ 20 µM

---

Molecular target: HLA-B*18:01
Assay: IEDB peptide-MHC binding, purified MHC/direct/fluorescence; filed as Kd, often an IC50 or EC50 that approximates it; bounds were set here for any values at or beyond the usual limits of such assays
Settings: source organism: Orthohantavirus seoulense
pKd: −log10 of the molar value.
readoutLabel: pKd

Query: Name the reported pKd value associated with the sequence `KPKHLYVSM`
Reply: ≤ 4.70

---

Kd overview
Target: HLA-A*03:01
Test: IEDB peptide-MHC binding, purified MHC/direct/fluorescence; filed as Kd, often an IC50 or EC50 that approximates it; bounds were set here for any values at or beyond the usual limits of such assays
Conditions: source organism: Giardia lamblia ATCC 50803

Some sequences with known Kd results, for comparison:
INSERT INTO assay_data (itemsequence, readoutlabel, testvalue) VALUES
  ('ITFHNQRDF', 'Kd', '≥ 20 µM'),
  ('ISYTYNDNW', 'Kd', '≥ 20 µM');

Continue with the next sequence.
Query: Name the reported Kd value associated with the sequence `GMLSSLHTL`
Reply: ≥ 20 µM

---

Biological target: HLA-A*02:01
Assay: IEDB peptide-MHC binding, purified MHC/competitive/fluorescence; filed as Kd, often an IC50 or EC50 that approximates it; bounds were set here for any values at or beyond the usual limits of such assays
Conditions: source organism: Vibrio antiquarius
readoutLabel: pKd
Bear in mind: pKd is minus log10 of a mol/L concentration; give just that figure.

Query: Name the reported pKd value associated with the sequence `VTGCASLYV`
Reply: 7.33

---

Target: HLA-A*03:01
Test: IEDB peptide-MHC binding, purified MHC/direct/fluorescence; filed as Kd, often an IC50 or EC50 that approximates it; bounds were set here for any values at or beyond the usual limits of such assays
Conditions: source organism: Pseudomonas putida
pKd: −log10 of the molar value.
readoutLabel: pKd

Query: Report pKd for `VMTEGRHAV` tested on HLA-A*03:01.
Reply: ≤ 4.70

---

Biological target: HLA-B*44:03
Experiment: IEDB peptide-MHC binding, purified MHC/competitive/radioactivity; filed as Kd, often an IC50 or EC50 that approximates it; bounds were set here for any values at or beyond the usual limits of such assays
Settings: source organism: Lymphocytic choriomeningitis virus (strain Armstrong)
readoutLabel: Kd

Query: Name the reported Kd value associated with the sequence `ADQAIANGV`
Reply: ≥ 30.2 µM

---

Target: HLA-A*01:01
Experiment: IEDB peptide-MHC binding, purified MHC/direct/fluorescence; filed as Kd, often an IC50 or EC50 that approximates it; bounds were set here for any values at or beyond the usual limits of such assays
Conditions: source organism: Salmonella enterica
pKd: −log10 of the molar value.
readoutLabel: pKd

Query: Name the reported pKd value associated with the sequence `ALMRWRHPR`
Reply: ≤ 4.70

---

Molecular target: HLA-B*46:01
Assay: IEDB peptide-MHC binding, purified MHC/direct/fluorescence; filed as Kd, often an IC50 or EC50 that approximates it; bounds were set here for any values at or beyond the usual limits of such assays
Settings: source organism: Orthohantavirus seoulense
readoutLabel: Kd

Query: Name the reported Kd value associated with the sequence `KPKHLYVSM`
Reply: ≥ 20 µM

---

Molecular target: HLA-A*01:01
Test: IEDB peptide-MHC binding, purified MHC/competitive/fluorescence; filed as Kd, often an IC50 or EC50 that approximates it; bounds were set here for any values at or beyond the usual limits of such assays
Details: source organism: Human immunodeficiency virus 1
pKd overview
Bear in mind: pKd is minus log10 of a mol/L concentration; give just that figure.

INSERT INTO results (itemsequence, readoutlabel, testvalue) VALUES
  ('KSLYNTVAVLY', 'pKd', 5.35);

Continue with the next sequence.
Query: Report pKd for `GTEELKSLY` tested on HLA-A*01:01.
Reply: 7.79

Each recorded value in this set is attributed to the Immune Epitope Database (IEDB).
